Target: T1, recombinant human CD123-Fc (human, UniProt P26951 19-305)
T1 construct: not shown: Fc part of CD123-Fc
T1 sequence: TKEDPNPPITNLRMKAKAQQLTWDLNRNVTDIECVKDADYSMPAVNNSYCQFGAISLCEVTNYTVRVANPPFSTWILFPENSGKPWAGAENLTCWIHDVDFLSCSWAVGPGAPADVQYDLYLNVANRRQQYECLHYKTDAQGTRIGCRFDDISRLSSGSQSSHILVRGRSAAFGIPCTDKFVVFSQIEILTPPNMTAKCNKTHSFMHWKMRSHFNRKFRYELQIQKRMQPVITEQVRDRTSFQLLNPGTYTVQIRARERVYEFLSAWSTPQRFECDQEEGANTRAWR
Assay: phage ELISA, captured CD123-Fc
Categories are defined by ranges of ELISA_avg, namely group A (below 4 ratio A450 target/IgG1-Fc), group B (4 ratio A450 target/IgG1-Fc to below 6 ratio A450 target/IgG1-Fc), group C (6 ratio A450 target/IgG1-Fc or more)

Worked cases, answers included:
* SEQ ID NO: 391 (designed binder, D domain, on phage) MGSWSEFEDRLWAIDQRLFALGGSEAELAAFEKEIAAFESELQAYKGKGNPEVEWLRAYAADIRWELQAYRHN | group B
* SEQ ID NO: 528 (designed binder, D domain, on phage) MGSWFQFKEFLAMITHNLEALGGSEAELAEFEHDIALFESELQQYKGKGNPEVEALRKEAAAIRDELQAYRHN | group A
* SEQ ID NO: 588 (designed binder, D domain, on phage) MGSWMEFEDRLMAIVDRLWALGGSEAELADFEWNIAMFEEELQWYKGKGNPEVEALGDEAEAIEWELYAYRHN | group C
* SEQ ID NO: 580 (designed binder, D domain, on phage) MGSWIEFFHRLDAIQDRLDALGGSEAELAYFEWAIADFEHMLQLYKGKGNPEVEALQFEAFAIEGELYAYRHN | group A
* SEQ ID NO: 363 (designed binder, D domain, on phage) MGSWVEFDMRLSAIWERLIALGGSEAELAAFEKEIAAFESELQAYKGKGNPEVEWLREDAAEIREFLQAYRHN | group A

stdin: Input SEQ ID NO: 496 (designed binder, D domain, on phage) MGSWYMFKEELADIKWYLEALGGSEAELAWFEDDIAGFEWDLQAYKGKGNPEVEALRKEAAAIRDELQAYRHN ; output its category
stdout: group C

stdin: Which class holds SEQ ID NO: 621 (designed binder, D domain, on phage) MGSWYEFLARLYAIDERLWALGGSEAELATFEHWIADFEEQLQSYKGKGNPEVEALTDEAVAIGEELSAYRHN ?
stdout: group B

stdin: Category lookup for the binder SEQ ID NO: 554 (designed binder, D domain, on phage) MGSWDEFYYRLVAITHRLHALGGSEAELAWFEDDIAGFEWDLQTYKGKGNPEVEALYKEAGAIGMELTAYRHN
stdout: group B

stdin: // bin(item) where item = SEQ ID NO: 437 (designed binder, D domain, on phage) MGSWWLFKDDLAEIKYWLEALGGSEAELAFFEDDIAEFERGLQIYKGKGNPEVEALRKEAAAIRDELQAYRHN
stdout: group A

stdin: Class? Entry: SEQ ID NO: 590 (designed binder, D domain, on phage) MGSWEEFLFRLEAIQDRLWALGGSEAELAWFEYEIASFEDVLQSYKGKGNPEVEALSTEAKAIDYELFAYRHN
stdout: group C
